- EXPERIMENTAL SYSTEM: TANK-2 enzyme (Homo sapiens, UniProt Q9H2K2)
- Construct: made in house
- Sequence (Q9H2K2 whole entry): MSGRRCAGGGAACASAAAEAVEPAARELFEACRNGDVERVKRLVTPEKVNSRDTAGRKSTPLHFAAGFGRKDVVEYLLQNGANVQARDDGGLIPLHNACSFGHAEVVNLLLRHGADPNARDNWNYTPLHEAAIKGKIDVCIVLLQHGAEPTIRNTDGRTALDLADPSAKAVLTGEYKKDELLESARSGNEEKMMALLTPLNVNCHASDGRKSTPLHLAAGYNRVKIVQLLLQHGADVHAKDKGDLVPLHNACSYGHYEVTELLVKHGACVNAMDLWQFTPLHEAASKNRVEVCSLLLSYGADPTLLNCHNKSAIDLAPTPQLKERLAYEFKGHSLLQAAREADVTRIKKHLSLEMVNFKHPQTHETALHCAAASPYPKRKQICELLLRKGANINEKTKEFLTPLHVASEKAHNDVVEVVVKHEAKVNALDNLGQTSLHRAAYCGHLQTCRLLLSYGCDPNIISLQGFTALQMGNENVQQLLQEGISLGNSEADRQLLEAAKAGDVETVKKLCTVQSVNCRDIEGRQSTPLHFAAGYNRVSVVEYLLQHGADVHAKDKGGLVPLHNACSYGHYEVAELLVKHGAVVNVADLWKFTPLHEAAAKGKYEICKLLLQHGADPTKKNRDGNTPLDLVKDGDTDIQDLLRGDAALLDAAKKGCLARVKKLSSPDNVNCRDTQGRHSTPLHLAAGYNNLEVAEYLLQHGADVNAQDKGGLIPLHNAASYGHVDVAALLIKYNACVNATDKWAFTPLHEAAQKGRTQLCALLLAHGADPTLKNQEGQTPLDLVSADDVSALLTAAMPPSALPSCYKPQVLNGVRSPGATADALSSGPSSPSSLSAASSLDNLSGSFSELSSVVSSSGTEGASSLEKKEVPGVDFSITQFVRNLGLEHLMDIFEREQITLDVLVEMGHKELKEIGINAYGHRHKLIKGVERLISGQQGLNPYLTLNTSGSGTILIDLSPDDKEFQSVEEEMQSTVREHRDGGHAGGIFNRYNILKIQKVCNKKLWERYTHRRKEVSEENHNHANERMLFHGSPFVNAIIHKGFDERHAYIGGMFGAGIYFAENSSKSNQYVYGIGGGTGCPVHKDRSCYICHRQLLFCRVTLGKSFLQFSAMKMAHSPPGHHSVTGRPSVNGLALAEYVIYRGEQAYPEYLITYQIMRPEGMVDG
- EXPERIMENT DESCRIPTION: In vitro scintillation proximity assay (SPA) for TANK-2 inhibitory activity
- Format: biochemical
- PARTICULARS: auto-poly(ADP-ribosyl)ation, Ni flash plates; 96-well results if available, otherwise 384-well; tested between 10^-5 M and 3x10^-8 M; read-out: in vitro SPA assay TANK-2 pIC50 (converted)
- Protocol: C.2. In Vitro Scintillation Proximity Assay (SPA) for TANK-2 Inhibitory Activity Compounds of the present invention were tested in an in vitro assay based on SPA technology with Ni Flash plates (96 or 384 well). […] A stock solution of 100 nM [^3H]-NAD^+/NAD (0.1 mCi/ml, supplier: Perkin Elmer) and 0.25 mM NAD (Sigma) was made in assay buffer (60 mM Tris/HCl, pH 7.4; 0.9 mM DTT; 6 mM MgCl2). […] Values were expressed as counts per minute (cpm). […]
Collected IC50 values appear next to each entry.
// return numeric value only (unit: µM, not printed)

Recorded IC50, per entry:
- CCc1cc2ccc(CN3CCN(c4ncc(C(N)=O)cn4)CC3)cc2[nH]c1=O: 0.0362
- CCc1cc2ccc(CNCc3ccccc3)cc2[nH]c1=O: 0.155
- CCc1cc2ccc(CNCCCc3ccccc3)cc2[nH]c1=O: 5.38
- CCc1cc2ccc(CN3CCC(Cc4ccccc4)CC3)cc2[nH]c1=O: 3.12
- CCc1cc2ccc(CN3CCN(c4cccc(Cl)c4)CC3)cc2[nH]c1=O: 1.71

Request: # input compound: `CCc1cc2ccc(CN3CCN(c4ccc(C)c(C)c4)CC3)cc2[nH]c1=O` ; wanted: its IC50
Result: 0.649
